Test system: CD2F1 mice, L1210 leukemia ip, survival T/C
Experiment: NCI In Vivo Anticancer Drug Screen. Data for tumor model L1210 Leukemia (intraperitoneal) in CD2F1 (CDF1) mice
Details: endpoint: mean survival time; dose: 200.0 mg/kg/injection; schedule: Q04DX003 (ip); vehicle: other; higher = longer survival
Inconclusive results and toxic doses are left out.
quantity kind: T/C

Reported T/C for `O=C1c2ccccc2C(=O)N1Cl` : what is it?
110 % of control

Follow-up item: `O=[N+]([O-])c1ccc(N=Cc2ccc3c(c2)OCO3)c(Br)c1`
103 % of control

Follow-up item: `CCCCCCCCCCCCc1ccc(NC(C)=O)cc1`
95 % of control

Follow-up item: `CC(=O)c1ccc(C(=O)CC(O)(C(F)(F)F)C(F)(F)F)cc1`
97 % of control

Follow-up item: `Cc1nc(N)[nH]c(=O)c1[N+](=O)[O-]`
113 % of control

Follow-up item: `O=C(O)CCCc1ccc(Oc2ccccc2)cc1`
93 % of control

Follow-up item: `CCCCCCCCCC(=O)CCCCCCC`
92 % of control

Follow-up item: `O=C(O)c1cccs1`
102 % of control

Follow-up item: `O=C(O)c1ccc(CCCBr)cc1`
106 % of control

Follow-up item: `ClC1(Cl)OC(Cl)(Cl)C(Cl)(Cl)OC1(Cl)Cl`
97 % of control
